Biological target: LexA (Escherichia coli, UniProt P0A7C2 1-202)
Sequence (P0A7C2 whole entry): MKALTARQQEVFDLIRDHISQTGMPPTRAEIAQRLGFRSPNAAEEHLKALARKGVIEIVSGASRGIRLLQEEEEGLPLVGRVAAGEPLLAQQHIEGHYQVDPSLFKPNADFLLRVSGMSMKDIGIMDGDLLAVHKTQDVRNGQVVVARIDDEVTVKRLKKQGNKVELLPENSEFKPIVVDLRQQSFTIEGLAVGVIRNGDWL
Assay: EMSA; concentration as LexA dimer; Hill slope 1.2; 10 mM MgCl2; EMSA: 70 mM Tris-HCl pH 7.5, 2 mM PIPES, 180 mM NaCl, 10 mM MgCl2, 1 ug/ml salmon sperm DNA, 100 ug/ml BSA, 5% glycerol, 0.006% bromophenol blue, 0.1 nM probe
Conditions: protein: recombinant; chain copies: 2; label: 32P (5' on strand 1); blunt
result_type: pKd
Please note pKd is a logarithmic value: minus log10 of concentration in mol/L. Answer with that number alone.

(Q) Fill in: pKd of lexAop C/C (nonmethylated) (dsDNA) DNA 1: AATGCCTGCGGAAACTGTATATACACCCAGGGTCAATTCTGGCT DNA 2: AGCCAGAATTGACCCTGGGTGTATATACAGTTTCCGCAGGCATT is ___
(A) 7.82
